Test system: SF-539 CNS
Experiment: NCI tumour cell line growth inhibition, 48 h
Property: TGI

# annotated cases, reported TGI shown
1) COC(=O)N1CC[C@@H]2CCC=C(c3cccc4c3OCO4)[C@@H]21 :: > 100 µM
2) O=C1C2=C(C(=O)c3c(O)ccc(O)c31)N(c1ccc(N3CCOCC3)nc1)Cc1ccccc1O2 :: 0.944 µM
3) O=C(CSc1nc2ccc(I)cc2c(=O)n1Cc1ccccc1)N/N=C/c1ccccc1 :: > 100 µM
4) CCCS(=O)(=O)O :: > 100 µM
5) CCCNc1nc(N(C)O)nc(N(C)O)n1 :: > 54.4 µM

Given the molecule O=c1[nH]c(=S)[nH]c2c1sc(=S)n2-c1ccccc1 , what is its reported TGI? > 100 µM

Again, but for COC(=O)C12CCC(C(=O)OC)(Cc3c(c4ccccc4n3S(=O)(=O)c3ccccc3)C1)C2=O (stereo not drawn) > 67.3 µM

Another molecule to check: C[N+](C)(C)CCOP(=O)(O)OP(=O)([O-])OCC1CCC(n2ccc(N)nc2=O)O1 (stereo not drawn) > 100 µM
